# System Tested: Ba/F3 cells, ABL1 T315I (Homo sapiens, UniProt P00519, T315I, cells depend on it)
# Method Description: 96-well XTT cell survival assay, Ba/F3 ABL1 T315I
# Assay type: cell-based
# Condition Parameters: 72 hours, read-out: ABL1 T315I XTT [Ba/F3] IC50
Quantity Kind: GI50

Challenge: Identify the reported GI50 for the following entry. COc1ccccc1-c1n[nH]c2ncc(-c3cccc([C@@H](O)[C@H](O)C(C)C)c3)cc12
Response given: < 1 µM

Challenge: Identify the reported GI50 for the following entry. CSc1ccccc1-c1c[nH]c2ncc(-c3cncc(C(O)C(=O)N(C)C)c3)cc12 (stereo not drawn)
Response given: < 1 µM

Challenge: Identify the reported GI50 for the following entry. COc1ccccc1-c1n[nH]c2ncc(-c3cccc(C(O)c4ncccc4C(F)(F)F)c3)cc12 (stereo not drawn)
Response given: > 1 µM

Challenge: Identify the reported GI50 for the following entry. COc1ccccc1-c1n[nH]c2ncc(-c3cccc(C(O)C(=O)N4CC(O)C4)c3)cc12 (stereo not drawn)
Response given: > 1 µM

Challenge: Identify the reported GI50 for the following entry. CN(C)C(=O)C(O)c1cncc(-c2cnc3[nH]cc(-c4ccccc4F)c3c2)c1 (stereo not drawn)
Response given: < 1 µM

Challenge: Identify the reported GI50 for the following entry. COc1ccccc1-c1c[nH]c2ncc(-c3cc(C(O)C(=O)N(C)C)ccn3)cc12 (stereo not drawn)
Response given: > 1 µM

Challenge: Identify the reported GI50 for the following entry. COc1ccccc1-c1c[nH]c2ncc(-c3cccc(C(O)C(=O)N(C)CCN(C)C)c3)cc12 (stereo not drawn)
Response given: < 1 µM

Challenge: Identify the reported GI50 for the following entry. COc1ccccc1-c1n[nH]c2ncc(-c3cccc(C(O)C(=O)N(C)C4CCS(=O)(=O)C4)c3)cc12 (stereo not drawn)
Response given: > 1 µM

Challenge: Identify the reported GI50 for the following entry. Cc1ccc(-c2c[nH]c3ncc(-c4cncc(C(O)C(=O)N(C)C)c4)cc23)cc1 (stereo not drawn)
Response given: > 1 µM

* * *

# System Tested: Ba/F3 cells, ABL1 T315I (Homo sapiens, UniProt P00519, T315I, cells depend on it)
# Method Description: 96-well XTT cell survival assay, Ba/F3 ABL1 T315I
# Format: cell-based
# Condition Parameters: 72 hours, read-out: ABL1 T315I XTT [Ba/F3] IC50
Quantity Kind: GI50

Challenge: Identify the reported GI50 for the following entry. COc1ccccc1-c1c[nH]c2ncc(-c3cccc(C(O)C(=O)N(C)CC4CCOCC4)c3)cc12 (stereo not drawn)
Response given: < 1 µM

Challenge: Identify the reported GI50 for the following entry. COc1ccccc1-c1n[nH]c2ncc(-c3cccc([C@H]4OCO[C@@H]4C(C)C)c3)cc12
Response given: > 1 µM

Challenge: Identify the reported GI50 for the following entry. COc1ccccc1-c1n[nH]c2ncc(-c3cccc(C(C(=O)N4CCC(N(C)C)C4)N(C)C)c3)cc12 (stereo not drawn)
Response given: > 1 µM

Challenge: Identify the reported GI50 for the following entry. COc1ccccc1-c1n[nH]c2ncc(-c3cccc(C(O)C(=O)N(C)C)c3)cc12 (stereo not drawn)
Response given: < 1 µM

Challenge: Identify the reported GI50 for the following entry. COc1ccccc1-c1n[nH]c2ncc(-c3cccc(C(=O)C(=O)N4CC(O)C4)c3)cc12
Response given: > 1 µM

Challenge: Identify the reported GI50 for the following entry. CN(C)C(=O)C(O)c1cncc(-c2cnc3[nH]cc(-c4ccc(CO)cc4)c3c2)c1 (stereo not drawn)
Response given: > 1 µM

Challenge: Identify the reported GI50 for the following entry. CN(C)C(=O)C(O)c1cncc(-c2cnc3[nH]cc(-c4cccc5c4OC(F)(F)O5)c3c2)c1 (stereo not drawn)
Response given: > 1 µM

Challenge: Identify the reported GI50 for the following entry. COc1ccccc1-c1c[nH]c2ncc(-c3cccc(C(C(=O)N(C)CCN(C)C)N4CCNCC4)c3)cc12 (stereo not drawn)
Response given: > 1 µM

Challenge: Identify the reported GI50 for the following entry. CN(C)C(=O)C(O)c1cncc(-c2cnc3[nH]cc(-c4ccccc4OC4CC4)c3c2)c1 (stereo not drawn)
Response given: < 1 µM

* * *

# System Tested: Ba/F3 cells, ABL1 WT (Homo sapiens)
# Method Description: 96-well XTT cell survival assay, Ba/F3 ABL1 WT
# Format: cell-based
# Condition Parameters: 72 hours, read-out: ABL1 WT XTT [Ba/F3] IC50
Quantity Kind: GI50

Challenge: Identify the reported GI50 for the following entry. COC(=O)C1=C(C)NC(=O)NC1c1cccc(-c2cnc3[nH]cc(-c4ccccc4OC)c3c2)c1 (stereo not drawn)
Response given: > 1000 nM

Challenge: Identify the reported GI50 for the following entry. COc1ccccc1-c1c[nH]c2ncc(-c3cccc(C(O)C(=O)N(C)CCNC4CC4)c3)cc12 (stereo not drawn)
Response given: < 1000 nM

Challenge: Identify the reported GI50 for the following entry. COc1ccccc1-c1c[nH]c2ncc(-c3cccc(C(O)c4ccccn4)c3)cc12 (stereo not drawn)
Response given: < 1000 nM

Challenge: Identify the reported GI50 for the following entry. CN(C)C(=O)C(O)c1cncc(-c2cnc3[nH]cc(-c4cccc(Cl)c4)c3c2)c1 (stereo not drawn) [drawing 459]
Response given: < 1000 nM

Challenge: Identify the reported GI50 for the following entry. CN(C)C(=O)C(O)c1cncc(-c2cnc3[nH]cc(-c4ccccc4OC4CC4)c3c2)c1 (stereo not drawn)
Response given: < 1000 nM

Challenge: Identify the reported GI50 for the following entry. CN(C)C(=O)C(O)c1cc(-c2cnc3[nH]cc(-c4ccccc4F)c3c2)cnc1N (stereo not drawn)
Response given: < 1000 nM

Challenge: Identify the reported GI50 for the following entry. CN(C)C(=O)C(O)c1cncc(-c2cnc3[nH]cc(-c4cnc(N)s4)c3c2)c1 (stereo not drawn)
Response given: > 1000 nM

Challenge: Identify the reported GI50 for the following entry. COc1ccccc1-c1n[nH]c2ncc(-c3cccc(C(O)C(=O)NC4CCN(C)CC4)c3)cc12 (stereo not drawn)
Response given: > 1000 nM

Challenge: Identify the reported GI50 for the following entry. CN(C)C(=O)C(O)c1cncc(-c2cnc3[nH]cc(-c4ccncc4)c3c2)c1 (stereo not drawn)
Response given: > 1000 nM

* * *

# System Tested: Ba/F3 cells, ABL1 T315I (Homo sapiens, UniProt P00519, T315I, cells depend on it)
# Method Description: 96-well XTT cell survival assay, Ba/F3 ABL1 T315I
# Format: cell-based
# Condition Parameters: 72 hours, read-out: ABL1 T315I XTT [Ba/F3] IC50
Quantity Kind: GI50

Challenge: Identify the reported GI50 for the following entry. COc1ccccc1-c1n[nH]c2ncc(-c3cccc(C(C)O)c3)cc12 (stereo not drawn)
Response given: < 1 µM

Challenge: Identify the reported GI50 for the following entry. CNCCN(C)C(=O)C(N)c1cccc(-c2cnc3[nH]cc(-c4ccccc4OC)c3c2)c1 (stereo not drawn)
Response given: > 1 µM

Challenge: Identify the reported GI50 for the following entry. CN(C)C(=O)C(O)c1cncc(-c2cnc3[nH]cc(-c4cnc(N)s4)c3c2)c1 (stereo not drawn)
Response given: > 1 µM

Challenge: Identify the reported GI50 for the following entry. CN(C)C(=O)C(O)c1cncc(-c2cnc3[nH]cc(-c4cccc(Cl)c4)c3c2)c1 (stereo not drawn) [drawing 431]
Response given: < 1 µM

Challenge: Identify the reported GI50 for the following entry. CN(C)C(=O)C(O)c1cncc(-c2cnc3[nH]cc(-c4ccccc4OC(F)(F)F)c3c2)c1 (stereo not drawn)
Response given: > 1 µM

Challenge: Identify the reported GI50 for the following entry. CN(C)C(=O)C(O)c1cncc(-c2cnc3[nH]cc(-c4ccc(F)cc4)c3c2)c1 (stereo not drawn)
Response given: > 1 µM

Challenge: Identify the reported GI50 for the following entry. COc1ccccc1-c1n[nH]c2ncc(-c3cccc(CO)n3)cc12
Response given: > 1 µM

Challenge: Identify the reported GI50 for the following entry. COc1ccccc1-c1n[nH]c2ncc(-c3cccc(C(O)C(=O)N(C)CCN(C)C)c3)cc12 (stereo not drawn)
Response given: < 1 µM

Challenge: Identify the reported GI50 for the following entry. CNC(=O)C(O)c1cccc(-c2cnc3[nH]nc(-c4ccccc4OC)c3c2)c1 (stereo not drawn)
Response given: < 1 µM

* * *

Assign IC50 to each entry below.
# System Tested: unphosphorylated T315I Abl kinase domain (Mus musculus, UniProt P00520, T315I)
# Construct: purified and unphosphorylated T315I Abl kinase domain
# Sequence (P00520 242-493 T315I limits assumed): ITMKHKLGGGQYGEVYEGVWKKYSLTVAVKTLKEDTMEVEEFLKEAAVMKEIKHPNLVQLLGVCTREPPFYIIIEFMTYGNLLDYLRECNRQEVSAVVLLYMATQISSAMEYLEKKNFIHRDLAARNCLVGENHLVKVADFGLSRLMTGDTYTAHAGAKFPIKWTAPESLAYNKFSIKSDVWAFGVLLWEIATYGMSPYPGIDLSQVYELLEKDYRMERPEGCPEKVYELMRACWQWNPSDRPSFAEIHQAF
# Method Description: c-Abl T315I 0P bioassay (pyruvate kinase/lactate dehydrogenase coupled enzyme assay)
# Condition Parameters: zero phosphorylation state (0P), 10 μM ATP, read-out: AbI T315I 0P IC50
# Experimental: Although the first of these examples uses the kinase domain of a mutant form of Abl T315I (“Abl T315I KD”), the kinase assays may use various forms of mutant and wild type enzymes, including, for example, the entire protein, the kinase domain, or a portion thereof (e.g. Abl Y393F). The kinases used in the assays may also be of varying phosphorylation states. […] Activity was measured by following the time-dependent loss of NADH by absorbance spectroscopy at 340 nm. […]

Challenge: Identify the reported IC50 for the following entry. CN(C)C(=O)C(O)c1cncc(-c2cnc3[nH]cc(-c4ccc(N(C)C)cc4)c3c2)c1 (stereo not shown)
Response given: 50 to 500 nM

Challenge: Identify the reported IC50 for the following entry. CN(C)C(=O)C(O)c1cncc(-c2cnc3[nH]cc(-c4cccnc4)c3c2)c1 (stereo not shown)
Response given: 50 to 500 nM

Challenge: Identify the reported IC50 for the following entry. COc1ccccc1-c1n[nH]c2ncc(-c3cccc(C(O)c4ccccn4)c3)cc12 (stereo not shown)
Response given: < 50 nM

Challenge: Identify the reported IC50 for the following entry. COc1ccccc1-c1n[nH]c2ncc(-c3cccc(C(O)C(=O)N(C)CCN(C)C)c3)cc12 (stereo not shown)
Response given: < 50 nM

Challenge: Identify the reported IC50 for the following entry. CCN(CC)CCN(CC)C(=O)C(O)c1cccc(-c2cnc3[nH]nc(-c4ccccc4OC)c3c2)c1 (stereo not shown)
Response given: < 50 nM

Challenge: Identify the reported IC50 for the following entry. COc1ccccc1-c1n[nH]c2ncc(-c3cccc(C(O)c4ncccc4C)c3)cc12 (stereo not shown)
Response given: < 50 nM

Challenge: Identify the reported IC50 for the following entry. CNC(C(=O)N1CCC(O)C1)c1cccc(-c2cnc3[nH]nc(-c4ccccc4OC)c3c2)c1 (stereo not shown)
Response given: < 50 nM

Challenge: Identify the reported IC50 for the following entry. CN(C)C(=O)C(O)c1cncc(-c2cnc3[nH]cc(-c4ccc(OC(F)(F)F)cc4)c3c2)c1 (stereo not shown)
Response given: 50 to 500 nM

Challenge: Identify the reported IC50 for the following entry. COc1ccccc1-c1c[nH]c2ncc(-c3cccc(C(O)CN)c3)cc12 (stereo not shown)
Response given: < 50 nM

Challenge: Identify the reported IC50 for the following entry. COc1ccccc1-c1n[nH]c2ncc(-c3cccc(C(O)C(=O)N(C)C)n3)cc12 (stereo not shown)
Response given: < 50 nM

Challenge: Identify the reported IC50 for the following entry. COc1ccccc1-c1n[nH]c2ncc(-c3cccc(C(C(=O)N(C)C)N(C)C)c3)cc12 (stereo not shown)
Response given: 50 to 500 nM

Challenge: Identify the reported IC50 for the following entry. COc1ccccc1-c1c[nH]c2ncc(-c3cc(C(O)C(=O)N(C)C)ncn3)cc12 (stereo not shown)
Response given: 50 to 500 nM

Challenge: Identify the reported IC50 for the following entry. COc1ccccc1-c1c[nH]c2ncc(-c3cncc(C(O)C4CC4)c3)cc12 (stereo not shown)
Response given: < 50 nM

Challenge: Identify the reported IC50 for the following entry. CSc1ccccc1-c1c[nH]c2ncc(-c3cncc(C(O)C(=O)N(C)C)c3)cc12 (stereo not shown)
Response given: < 50 nM

Challenge: Identify the reported IC50 for the following entry. COc1ccccc1-c1c[nH]c2ncc(-c3cccc(C(O)C(=O)N(C)CCNC4CC4)c3)cc12 (stereo not shown)
Response given: < 50 nM

Challenge: Identify the reported IC50 for the following entry. CN(C)C(=O)C(O)c1cncc(-c2cnc3[nH]cc(-c4cccc5c4OC(F)(F)O5)c3c2)c1 (stereo not shown)
Response given: < 50 nM

Challenge: Identify the reported IC50 for the following entry. COc1ccccc1-c1n[nH]c2ncc(-c3cccc([C@@H]4OCO[C@@H]4C(C)C)c3)cc12
Response given: < 50 nM

Challenge: Identify the reported IC50 for the following entry. CC[C@H](O)[C@@H](O)c1cccc(-c2cnc3[nH]cc(-c4ccccc4OC)c3c2)c1
Response given: < 50 nM

Challenge: Identify the reported IC50 for the following entry. CNC(C(=O)N(C)C)c1cccc(-c2cnc3[nH]nc(-c4ccccc4OC)c3c2)c1 (stereo not shown)
Response given: < 50 nM

src = patent US8242280B2
